target: active p38 alpha enzyme (Upstate Biotechnology) (Homo sapiens); construct: purchased Upstate Biotechnology; experiment: p38α biochemical assay (ATP turnover, luminescent detection, Cambrex PKlight); conditions: p38α biochemical assay, Table 1 Biological Activity
Sequence (Q16539 whole entry): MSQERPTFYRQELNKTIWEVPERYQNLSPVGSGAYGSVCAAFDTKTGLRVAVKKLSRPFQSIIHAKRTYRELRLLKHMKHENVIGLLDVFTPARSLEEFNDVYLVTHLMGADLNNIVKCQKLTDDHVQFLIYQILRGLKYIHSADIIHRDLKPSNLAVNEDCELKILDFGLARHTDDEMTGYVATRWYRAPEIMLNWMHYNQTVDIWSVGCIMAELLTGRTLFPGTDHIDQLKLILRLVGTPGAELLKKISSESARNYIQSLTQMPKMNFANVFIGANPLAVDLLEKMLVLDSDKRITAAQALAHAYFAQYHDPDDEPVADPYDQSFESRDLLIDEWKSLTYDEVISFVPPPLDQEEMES
measured.parameter: IC50

Task: May I ask what IC50 has been recorded for COc1cccc(OC)c1C(=O)NCc1nc(-c2ccc(F)cc2)c(-c2nc(C(=O)NC(C)C)cs2)o1 ?
Result: ≤ 1000 nM

Task: May I ask what IC50 has been recorded for COc1ccccc1/C=C/C(=O)N1CCN(Cc2nc(-c3ccc(F)cc3)c(-c3nc(C(=O)NC(C)C)cs3)o2)CC1 ?
Result: ≤ 1000 nM

Task: May I ask what IC50 has been recorded for CC(C)NC(=O)c1csc(-c2oc(CNC(=O)c3cc(F)c(F)cc3[N+](=O)[O-])nc2-c2ccc(F)cc2)n1 ?
Result: ≤ 1000 nM

Task: May I ask what IC50 has been recorded for CC(C)NC(=O)c1csc(-c2c(-c3ccc(F)cc3)noc2CNC(=O)c2cccc(Br)c2)n1 ?
Result: > 1000 nM
